target under test: human melanocortin 4 receptor (human, UniProt P32245 1-332)
Sequence (P32245 whole entry): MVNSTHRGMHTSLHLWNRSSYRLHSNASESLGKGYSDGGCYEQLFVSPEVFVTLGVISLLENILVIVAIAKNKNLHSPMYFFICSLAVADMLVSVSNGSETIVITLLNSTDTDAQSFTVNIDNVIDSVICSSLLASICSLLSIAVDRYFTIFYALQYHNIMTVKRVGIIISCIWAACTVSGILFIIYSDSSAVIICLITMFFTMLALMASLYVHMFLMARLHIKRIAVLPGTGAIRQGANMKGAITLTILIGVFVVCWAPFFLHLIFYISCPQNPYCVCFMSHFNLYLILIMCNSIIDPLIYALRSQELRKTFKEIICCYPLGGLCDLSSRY
protocol text: cell-based or functional assay
Positions of bridges follow the written chain, without caps; N, C: chain ends. Non-standard residues stand in square brackets, D forms with d.
measure name: MC4R cAMP EC50 (nM)
Report only the number, with the unit nM understood.

Q) Find the recorded MC4R cAMP EC50 belonging to cyclo(CPH[dF]HWCAHKKR) (disulfide 1-7; SMILES C[C@@H]1NC(=O)[C@@H]2CSSC[C@H](NC(=O)[C@H](CCCNC(=N)N)NC(=O)[C@H](CCCCN)NC(=O)[C@H](CCCCN)NC(=O)[C@H](Cc3c[nH]cn3)NC1=O)C(=O)N1CCC[C@H]1C(=O)N[C@@H](Cc1c[nH]cn1)C(=O)N[C@H](Cc1ccccc1)C(=O)N[C@@H](Cc1c[nH]cn1)C(=O)N[C@@H](Cc1c[nH]c3ccccc13)C(=O)N2, also called c[c[Cys-Pro-His-D-Phe-His-Trp-Cys]-Ala-His-Lys-Lys-Arg]) [Chem. 96] and report it.
A) 0.04
